- studyTarget: EGFR L858R/T790M/C797S (Homo sapiens, UniProt P00533, C797S/L858R/T790M)
- Sequence (P00533 25-1210 T790M/C797S/L858R): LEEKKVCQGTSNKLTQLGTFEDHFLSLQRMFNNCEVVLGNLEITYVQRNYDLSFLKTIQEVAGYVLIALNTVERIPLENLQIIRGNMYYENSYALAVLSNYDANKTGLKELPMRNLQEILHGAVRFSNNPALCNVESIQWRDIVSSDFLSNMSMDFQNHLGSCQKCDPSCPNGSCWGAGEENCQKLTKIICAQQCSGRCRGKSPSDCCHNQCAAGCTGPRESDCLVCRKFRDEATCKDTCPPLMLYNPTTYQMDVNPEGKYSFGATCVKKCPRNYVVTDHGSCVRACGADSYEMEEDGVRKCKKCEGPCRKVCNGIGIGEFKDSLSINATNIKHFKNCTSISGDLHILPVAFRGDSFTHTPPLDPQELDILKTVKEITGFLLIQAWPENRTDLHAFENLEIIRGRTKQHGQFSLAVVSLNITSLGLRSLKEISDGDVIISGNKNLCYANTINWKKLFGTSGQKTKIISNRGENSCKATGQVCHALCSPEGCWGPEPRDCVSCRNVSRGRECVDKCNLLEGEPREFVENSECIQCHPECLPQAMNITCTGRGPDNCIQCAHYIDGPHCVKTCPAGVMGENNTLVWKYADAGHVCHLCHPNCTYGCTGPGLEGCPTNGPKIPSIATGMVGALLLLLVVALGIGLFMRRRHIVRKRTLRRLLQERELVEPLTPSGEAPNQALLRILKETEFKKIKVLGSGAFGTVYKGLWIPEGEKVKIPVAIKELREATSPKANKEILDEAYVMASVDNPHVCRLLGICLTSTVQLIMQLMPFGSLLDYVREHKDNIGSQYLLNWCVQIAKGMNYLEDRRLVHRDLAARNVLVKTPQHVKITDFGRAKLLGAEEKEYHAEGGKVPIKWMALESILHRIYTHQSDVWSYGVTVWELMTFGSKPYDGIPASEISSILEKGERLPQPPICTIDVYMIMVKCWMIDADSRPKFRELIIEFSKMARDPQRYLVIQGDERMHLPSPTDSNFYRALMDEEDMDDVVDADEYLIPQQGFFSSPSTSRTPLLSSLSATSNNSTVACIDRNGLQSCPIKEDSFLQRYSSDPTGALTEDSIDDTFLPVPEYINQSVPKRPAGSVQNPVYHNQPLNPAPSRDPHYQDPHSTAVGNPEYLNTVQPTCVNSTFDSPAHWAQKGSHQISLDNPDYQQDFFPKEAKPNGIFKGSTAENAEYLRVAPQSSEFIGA
- experimentDescription: Biochemical EGFR kinase assay (Lance Ultra TR-FRET), triple mutant L858R/T790M/C797S
- protocolConditions: IC50 L858R/T790M/C797S (nM) 100 μM ATP, 100 μM ATP
resultType: IC50 (nM)

Consider the worked cases shown below.
Documented IC50 of CN(C)CC1(C)CCC(Nc2cc(Nc3ccnc(-c4cnn(S(=O)(=O)C5CC5)c4)n3)ncc2-c2ccn(C(F)F)n2)CC1 (stereo not drawn) : 1

Documented IC50 of CN(C)C[C@H]1CC[C@@H](Nc2cc(Nc3ccnc(-c4cnn(S(=O)(=O)C5CC5)c4)n3)ncc2-c2ccn(C)n2)CC1 : 0.1

1 = O=S(=O)(C1CC1)n1cc(-c2nccc(Nc3cc(N[C@H]4CC[C@H](CO)CC4)c(-c4ccn(C(F)F)n4)cn3)n2)cn1
2 = Cn1ccc(-c2cnc(Nc3ccnc(-c4cnn(S(=O)(=O)C5CC5)c4)n3)cc2N[C@H]2CC[C@H](CO)OC2)n1
3 = O=S(=O)(C1CC1)n1cc(-c2nccc(Nc3cc(N[C@H]4CC[C@@H](CN5CCC5)CC4)c(-c4ccn(CC(F)F)n4)cn3)n2)cn1
4 = Cn1ccc(-c2cnc(Nc3ccnc(-c4cnn(S(=O)(=O)C5CC5)c4)n3)cc2N[C@H]2CC[C@@H](C(C)(C)O)CC2)n1
[in] // smallest IC50 at index 0, largest at the end Enter labels, ranked according to the request.
[out] 3, 4, 1, 2
